protocol_notes: Plasma levels of Example 6 at Cmax after s.c. dosing of Example 7 in the radio-sensitization studies
Assay type: in vivo, nude mice
conditions: athymic NCR NUM nude, mouse, sc, 100 mg/kg, at 100 mg/kg Example 7 s.c., initial study (7.5 Gy schedule), read-out: Plasma levels of Example 6 at Cmax associated with efficacy
measurement_kind: Cmax (µM)
Just the number in µM, nothing appended.

Problem: Please look up its Cmax: COc1cccc2[nH]c3c4c(c5c(c3c12)C(=O)NC5=O)CCC4 [Example 6]
Solution: 23

====

protocol_notes: Plasma levels of Example 6 at Cmax after s.c. dosing of Example 7 in the radio-sensitization studies
Type: in vivo, nude mice
conditions: athymic NCR NUM nude, mouse, sc, 30 mg/kg, Example 7 30 mg/kg s.c., fractionated RT study, read-out: Plasma levels of Example 6 at Cmax associated with radio-sensitization efficacy
measurement_kind: Cmax (µM)
Give just the numeric value; µM need not be written.

Problem: Reported Cmax for COc1cccc2[nH]c3c4c(c5c(c3c12)C(=O)NC5=O)CCC4 : what is it?
Solution: 5.5

====

protocol_notes: Plasma levels of Example 6 at Cmax after s.c. dosing of Example 7 in the radio-sensitization studies
Format: in vivo, nude mice
conditions: athymic NCR NUM nude, mouse, sc, 100 mg/kg, Example 7 100 mg/kg s.c. dose, fractionated RT study, read-out: Plasma levels at Cmax
measurement_kind: Cmax (µM)
Please reply with the bare figure in µM and do not write the unit itself.

Problem: Name the recorded Cmax for COc1cccc2[nH]c3c4c(c5c(c3c12)C(=O)NC5=O)CCC4 .
Solution: 21

// data source = patent US20080146556A1
